Molecular target: Human BCL-XL protein (N-terminal HiBiT tagged BCL-XL in HT1080 cells) (Homo sapiens, UniProt Q07817)
Construct: expressed in transfected cells; host or cells: HT-1080 (ATCC CCL-121), stably transduced with lentivirus pLV-UBC-N-HiBiT-BCL-XL-PGK-puro and selected with puromycin
Sequence (Q07817 whole entry): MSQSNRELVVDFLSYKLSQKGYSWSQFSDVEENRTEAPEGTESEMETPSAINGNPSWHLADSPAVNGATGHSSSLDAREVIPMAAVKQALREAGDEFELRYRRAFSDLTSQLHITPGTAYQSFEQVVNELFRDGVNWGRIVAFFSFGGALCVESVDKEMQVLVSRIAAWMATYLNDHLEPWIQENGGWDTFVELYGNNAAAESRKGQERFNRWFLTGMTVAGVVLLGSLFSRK
Assay: HiBiT based degradation assay
Type: cell-based
Conditions: BCL-XL degradation normalized with DMSO control; HT1080 cells expressing HiBiT-BCL-XL; 24 h
measure: Ymin (24 h)

These recorded examples may help you get a feel for the data.
[
  {
    "compound": "Cc1c(Oc2ccc(CCCN3CCN(c4cccc5c(C6CCC(=O)NC6=O)nn(C)c45)CC3)cc2)cccc1-c1ccc(N2CCc3cccc(C(=O)Nc4nc5ccccc5s4)c3C2)nc1C(=O)O (centres unmarked)",
    "Ymin (24 h)": "B (50% ≤ Ymin < 70%)"
  },
  {
    "compound": "Cc1c(O[C@H]2CC[C@H](CCCCN3CCC(c4cccc5c(C6CCC(=O)NC6=O)nn(C)c45)CC3)CC2)cccc1-c1ccc(N2CCc3cccc(C(=O)Nc4nc5ccccc5s4)c3C2)nc1C(=O)O (some centres unmarked) [Compound 298a]",
    "Ymin (24 h)": "A (Ymin < 50%)"
  },
  {
    "compound": "Cc1c(O[C@H]2CC[C@H]([C@@H](C)CCN3CCN(c4ccc5c(C6CCC(=O)NC6=O)nn(C)c5c4)CC3)CC2)cccc1-c1ccc(N2CCc3cccc(C(=O)Nc4nc5ccccc5s4)c3C2)nc1C(=O)O (single isomer, unassigned) [Compound 310b]",
    "Ymin (24 h)": "A (Ymin < 50%)"
  },
  {
    "compound": "Cc1c(OC[C@@H]2CCC3(CCN(CC(=O)Nc4ccc5c(C6CCC(=O)NC6=O)nn(C)c5c4)CC3)C2)cccc1-c1ccc(N2CCc3cccc(C(=O)Nc4nc5ccccc5s4)c3C2)nc1C(=O)O (single isomer, unassigned) [Compound 262b]",
    "Ymin (24 h)": "A (Ymin < 50%)"
  },
  {
    "compound": "Cc1c(OCC(F)(F)CN2C[C@@H](C)N(CC(=O)Nc3cccc4c(C5CCC(=O)NC5=O)nn(C)c34)[C@@H](C)C2)cccc1-c1ccc(N2CCc3cccc(C(=O)Nc4nc5ccccc5s4)c3C2)nc1C(=O)O (some centres unmarked) [Compound 209a]",
    "Ymin (24 h)": "B (50% ≤ Ymin < 70%)"
  },
  {
    "compound": "Cc1c(Oc2ccccc2CCC(=O)Nc2ccc(C3CCC(=O)NC3=O)cc2)cccc1-c1ccc(N2CCc3cccc(C(=O)Nc4nc5ccccc5s4)c3C2)nc1C(=O)O (centres unmarked)",
    "Ymin (24 h)": "B (50% ≤ Ymin < 70%)"
  }
]

--- query ---
# input compound: Cc1c(O[C@@H](C)CCC2CCN(CC(=O)Nc3ccc4c(C5CCC(=O)NC5=O)nn(C)c4c3)CC2)cccc1-c1ccc(N2CCc3cccc(C(=O)Nc4nc5ccccc5s4)c3C2)nc1C(=O)O (some centres unmarked) [Compound 162a] ; wanted: its Ymin (24 h)
A (Ymin < 50%)

---

Molecular target: Human BCL-XL protein (N-terminal HiBiT tagged BCL-XL in HT1080 cells) (Homo sapiens)
Construct: expressed in transfected cells; host or cells: HT-1080 (ATCC CCL-121), stably transduced with lentivirus pLV-UBC-N-HiBiT-BCL-XL-PGK-puro and selected with puromycin
Test: HiBiT based degradation assay
Format: cell-based
Settings: BCL-XL degradation; HT1080 cells expressing HiBiT-BCL-XL; 24 h; read-out: EC50 (24 h)
Reported DC50 values for a set of compounds

[
  {
    "compound": "Cc1c(O[C@H]2CC[C@H](CC(F)(F)CN3CCN(c4ccc5c(C6CCC(=O)NC6=O)nn(C)c5c4)CC3)CC2)cccc1-c1ccc(N2CCc3cccc(C(=O)Nc4nc5ccccc5s4)c3C2)nc1C(=O)O (stereo partly drawn) [Compound 212a]",
    "target of assay": "Human BCL-XL protein (N-terminal HiBiT tagged BCL-XL in HT1080 cells) (Homo sapiens)",
    "DC50": "< 100 nM"
  }
]

# input compound: Cc1c(OCCCN2CCN(CC(=O)N3CCN(c4ccc5c(C6CCC(=O)NC6=O)nn(C)c5c4)CC3)CC2)cccc1-c1ccc(N2CCc3cccc(C(=O)Nc4nc5ccccc5s4)c3C2)nc1C(=O)O (stereo not drawn) ; wanted: its DC50
< 100 nM

# input compound: Cc1c(OCCCC2CCN(C(C)(C)C(=O)Nc3ccc4c(C5CCC(=O)NC5=O)nn(C)c4c3)CC2)cccc1-c1ccc(N2CCc3cccc(C(=O)Nc4nc5ccccc5s4)c3C2)nc1C(=O)O (stereo not drawn) ; wanted: its DC50
100 to 1000 nM

---

Molecular target: Human BCL-XL protein (N-terminal HiBiT tagged BCL-XL in HT1080 cells) (Homo sapiens, UniProt Q07817)
Construct: expressed in transfected cells; host or cells: HT-1080 (ATCC CCL-121), stably transduced with lentivirus pLV-UBC-N-HiBiT-BCL-XL-PGK-puro and selected with puromycin
Assay: HiBiT based degradation assay
Type: cell-based
Conditions: BCL-XL degradation normalized with DMSO control; HT1080 cells expressing HiBiT-BCL-XL; 6 h
measure: Ymin (6 h)

These recorded examples may help you get a feel for the data.
[
  {
    "molecule": "Cc1c(OCCCN2[C@H](C)CN(CC(=O)Nc3ccc4c(C5CCC(=O)NC5=O)nn(C)c4c3)C[C@@H]2C)cccc1-c1ccc(N2CCc3cccc(C(=O)Nc4nc5ccccc5s4)c3C2)nc1C(=O)O (some centres unmarked) [Compound 131a]",
    "measure": "Ymin (6 h)",
    "test value": "A (Ymin < 50%)"
  },
  {
    "molecule": "Cc1c(Oc2ccccc2CCC(=O)Nc2cccc3c(C4CCC(=O)NC4=O)nn(C)c23)cccc1-c1ccc(N2CCc3cccc(C(=O)Nc4nc5ccccc5s4)c3C2)nc1C(=O)O (centres unmarked)",
    "measure": "Ymin (6 h)",
    "test value": "C (Ymin ≥ 70%)"
  },
  {
    "molecule": "Cc1c(OCCC[C@H]2CCCN(CC(=O)Nc3ccc4c(C5CCC(=O)NC5=O)nn(C)c4c3)C2)cccc1-c1ccc(N2CCc3cccc(C(=O)Nc4nc5ccccc5s4)c3C2)nc1C(=O)O (some centres unmarked) [Compound 207b]",
    "measure": "Ymin (6 h)",
    "test value": "B (50% ≤ Ymin < 70%)"
  },
  {
    "molecule": "Cc1c(OCCCN2CCN(CCCOc3ccc4c(C5CCC(=O)NC5=O)nn(C)c4c3)CC2)cccc1-c1ccc(N2CCc3cccc(C(=O)Nc4nc5ccccc5s4)c3C2)nc1C(=O)O (centres unmarked)",
    "measure": "Ymin (6 h)",
    "test value": "A (Ymin < 50%)"
  },
  {
    "molecule": "Cc1c(OCCCN2CCN(CC(=O)N3CCN(c4cccc5c(C6CCC(=O)NC6=O)nn(C)c45)CC3)CC2)cccc1-c1ccc(N2CCc3cccc(C(=O)Nc4nc5ccccc5s4)c3C2)nc1C(=O)O (centres unmarked)",
    "measure": "Ymin (6 h)",
    "test value": "B (50% ≤ Ymin < 70%)"
  },
  {
    "molecule": "Cc1c(-c2ccc(N3CCc4cccc(C(=O)Nc5nc6ccccc6s5)c4C3)nc2C(=O)NCCCCCC(=O)Nc2ccc3c(C4CCC(=O)NC4=O)nn(C)c3c2)cnn1CC12CC3CC(CC(C3)C1)C2 (centres unmarked)",
    "measure": "Ymin (6 h)",
    "test value": "B (50% ≤ Ymin < 70%)"
  }
]

# input molecule: Cn1nc(C2CCC(=O)NC2=O)c2ccc(NC(=O)CN3CCN(CCOc4cccc(-c5ccc(N6CCc7cccc(C(=O)Nc8nc9ccccc9s8)c7C6)nc5C(=O)O)c4C(F)(F)F)CC3)cc21 (centres unmarked) ; wanted: its Ymin (6 h)
B (50% ≤ Ymin < 70%)

# input molecule: Cc1c(OCCN2CCN(CC(=O)Nc3ccc4c(C5CCC(=O)NC5=O)nn(C)c4c3)CC2)cccc1-c1ccc(N2CCc3cccc(C(=O)Nc4nc5ccccc5s4)c3C2)nc1C(=O)O (centres unmarked) ; wanted: its Ymin (6 h)
A (Ymin < 50%)

# input molecule: Cc1c(OCCCN2C[C@@H](C)N(CC(=O)Nc3ccc4c(C5CCC(=O)NC5=O)nn(C)c4c3)[C@@H](C)C2)cccc1-c1ccc(N2CCc3cccc(C(=O)Nc4nc5ccccc5s4)c3C2)nc1C(=O)O (some centres unmarked) [Compound 116a] ; wanted: its Ymin (6 h)
A (Ymin < 50%)

# input molecule: Cc1c(Oc2ccccc2CCC(=O)Nc2ccc(C3CCC(=O)NC3=O)cc2)cccc1-c1ccc(N2CCc3cccc(C(=O)Nc4nc5ccccc5s4)c3C2)nc1C(=O)O (centres unmarked) ; wanted: its Ymin (6 h)
B (50% ≤ Ymin < 70%)

# input molecule: Cc1c(OCCO[C@@H]2C[C@H]3CC[C@@H](C2)N3CC(=O)Nc2cccc3c(C4CCC(=O)NC4=O)nn(C)c23)cccc1-c1ccc(N2CCc3cccc(C(=O)Nc4nc5ccccc5s4)c3C2)nc1C(=O)O (some centres unmarked) [Compound 224a] ; wanted: its Ymin (6 h)
C (Ymin ≥ 70%)
